Target: Human CDK12 wt/CycK (Homo sapiens (Human))
Sequence (Q9NYV4 whole entry): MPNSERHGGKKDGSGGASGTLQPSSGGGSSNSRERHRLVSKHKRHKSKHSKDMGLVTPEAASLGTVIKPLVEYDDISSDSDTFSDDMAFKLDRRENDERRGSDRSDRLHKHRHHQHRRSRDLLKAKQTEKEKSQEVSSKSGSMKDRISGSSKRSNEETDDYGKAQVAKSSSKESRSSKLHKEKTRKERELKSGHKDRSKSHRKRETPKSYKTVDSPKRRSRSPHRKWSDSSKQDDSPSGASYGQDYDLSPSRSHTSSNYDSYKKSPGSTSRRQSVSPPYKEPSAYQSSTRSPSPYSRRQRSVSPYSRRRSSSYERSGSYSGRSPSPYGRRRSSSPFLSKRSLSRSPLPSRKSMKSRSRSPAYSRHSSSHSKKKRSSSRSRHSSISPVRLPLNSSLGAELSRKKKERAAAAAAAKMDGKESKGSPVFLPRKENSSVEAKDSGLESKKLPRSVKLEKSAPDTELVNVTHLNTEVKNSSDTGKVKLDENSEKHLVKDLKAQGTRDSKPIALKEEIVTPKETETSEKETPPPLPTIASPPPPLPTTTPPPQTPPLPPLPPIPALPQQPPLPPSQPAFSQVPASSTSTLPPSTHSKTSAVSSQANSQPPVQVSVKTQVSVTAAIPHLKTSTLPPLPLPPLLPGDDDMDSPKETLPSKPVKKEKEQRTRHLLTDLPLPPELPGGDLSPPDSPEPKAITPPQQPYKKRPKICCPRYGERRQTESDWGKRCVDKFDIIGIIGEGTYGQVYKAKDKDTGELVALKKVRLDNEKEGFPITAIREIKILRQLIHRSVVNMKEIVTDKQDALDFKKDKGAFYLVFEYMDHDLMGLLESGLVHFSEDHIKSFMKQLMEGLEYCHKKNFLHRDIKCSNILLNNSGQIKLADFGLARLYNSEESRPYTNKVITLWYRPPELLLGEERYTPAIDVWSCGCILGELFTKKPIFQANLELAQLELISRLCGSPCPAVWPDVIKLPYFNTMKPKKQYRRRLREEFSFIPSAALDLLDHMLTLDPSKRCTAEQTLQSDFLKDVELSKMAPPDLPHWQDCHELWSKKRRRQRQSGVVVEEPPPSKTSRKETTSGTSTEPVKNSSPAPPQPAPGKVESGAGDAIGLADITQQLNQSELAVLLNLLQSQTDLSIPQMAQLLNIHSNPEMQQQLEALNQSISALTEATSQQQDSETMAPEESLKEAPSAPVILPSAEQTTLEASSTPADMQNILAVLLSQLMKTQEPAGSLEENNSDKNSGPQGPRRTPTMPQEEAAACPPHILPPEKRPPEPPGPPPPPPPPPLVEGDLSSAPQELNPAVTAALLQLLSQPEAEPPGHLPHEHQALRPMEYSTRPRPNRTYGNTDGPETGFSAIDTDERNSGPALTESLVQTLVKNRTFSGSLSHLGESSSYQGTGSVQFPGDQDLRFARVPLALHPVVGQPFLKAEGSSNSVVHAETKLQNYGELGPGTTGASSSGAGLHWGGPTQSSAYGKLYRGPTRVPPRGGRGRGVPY
Sequence (O75909 whole entry partner): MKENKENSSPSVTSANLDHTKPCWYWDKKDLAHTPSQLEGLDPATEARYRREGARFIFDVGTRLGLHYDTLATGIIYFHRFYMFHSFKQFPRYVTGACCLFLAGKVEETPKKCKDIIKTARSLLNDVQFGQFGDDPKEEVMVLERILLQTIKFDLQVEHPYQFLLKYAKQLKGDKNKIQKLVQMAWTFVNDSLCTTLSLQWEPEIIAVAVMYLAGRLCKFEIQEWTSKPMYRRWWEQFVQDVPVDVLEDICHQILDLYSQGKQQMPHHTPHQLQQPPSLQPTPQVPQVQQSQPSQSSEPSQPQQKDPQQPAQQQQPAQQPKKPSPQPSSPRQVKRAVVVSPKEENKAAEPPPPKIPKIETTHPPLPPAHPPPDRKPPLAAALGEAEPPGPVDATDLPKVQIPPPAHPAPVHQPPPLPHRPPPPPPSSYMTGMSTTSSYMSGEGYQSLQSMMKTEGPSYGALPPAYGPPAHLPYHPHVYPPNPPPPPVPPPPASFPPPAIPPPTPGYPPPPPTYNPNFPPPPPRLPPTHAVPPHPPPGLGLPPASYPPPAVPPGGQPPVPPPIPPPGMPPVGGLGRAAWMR
Assay: Radiometric protein kinase assay (33PanQinase Activity Assay), CDK12
Assay type: biochemical
Settings: ratio of CDK7 IC50 to CDK12 IC50; greater than 1 indicates selectivity for CDK12
Experimental endpoint: CDK7/CDK12

Worked examples, 3 compounds total:
{"Compound": "c1cnc(-c2ccc(CNc3cc(N[C@H]4CCCNC4)nc4c(C5CC5)cnn34)cc2)nc1 [PPA-089]", "CDK7/CDK12": 9.8}
{"Compound": "O[C@H]1CNCC[C@@H]1CNc1cc(NCc2ccc(-c3ccccc3)cc2F)n2ncc(C3CC3)c2n1 [PPA-066]", "CDK7/CDK12": 5.2}
{"Compound": "Cc1nccn1-c1ccc(CNc2cc(NC[C@H]3CCNC[C@@H]3O)nc3c(C4CC4)cnn23)cc1 [PPA-023]", "CDK7/CDK12": 0.5}

Sample CC(C)c1cnn2c(NCc3ccc(-c4cccnc4)cc3)cc(NC[C@H]3CCNC[C@@H]3O)nc12 [PPA-003] — what was its CDK7/CDK12?
1.6

Any idea what its CDK7/CDK12 is? The compound is COc1cc(-c2ccccn2)ccc1CNc1cc(NC[C@H]2CCNC[C@@H]2O)nc2c(C3CC3)cnn12 [PPA-030]
1.7

Please look up its CDK7/CDK12: O[C@H]1CNCC[C@@H]1CNc1cc(NCc2ccc(-c3ccc(F)cn3)cc2)n2ncc(C3CC3)c2n1 [PPA-019]
3.2

Look at this compound and give its reported CDK7/CDK12. OC1CN(c2cc(NCc3ccc(-c4ccccn4)cc3)n3ncc(C4CC4)c3n2)C1 [PPA-052]
>4.5

What value of CDK7/CDK12 has been recorded for this entry: c1ccc(-c2ccc(CNc3cc(NC4CNC4)nc4c(C5CC5)cnn34)cc2)nc1 [PPA-047]
28.8

###

Attribute: IC50
Biological target: Human CDK12 wt/CycK (Homo sapiens (Human))
Assay: Radiometric protein kinase assay (33PanQinase Activity Assay), CDK12
Type: biochemical
Details: ATP 0.3 μM; read-out: CDK12 IC50
Protocol: A radiometric protein kinase assay (^33PanQinase® Activity Assay) was used for measuring the kinase activity of the two protein kinases (CDK12/CDK7). All kinase assays were performed in 96-well FlashPlates™ from PerkinElmer (Boston, MA, USA) in a 50 μL reaction volume. […] The reaction mixture was incubated at 30° C. for 60 min and then stopped by the addition of 2% (v/v) H3PO4. […] Incorporation of ^33Pi was determined with a microplate scintillation count (Microbeta, Wallac). […]
Please respond with the number in nM and leave the unit unwritten.

{"Compound": "CO[C@H]1CNCC[C@@H]1CNc1cc(NCc2ccc(-c3ccccn3)cc2)n2ncc(C3CC3)c2n1 [PPA-087]", "Target entity": "Human CDK12 wt/CycK (Homo sapiens (Human))", "IC50 [nM]": 503}
{"Compound": "CC(C)c1cnn2c(NCc3ccc(-c4ncccc4F)cc3)cc(NC[C@H]3CCNC[C@@H]3O)nc12 [PPA-014]", "Target entity": "Human CDK12 wt/CycK (Homo sapiens (Human))", "IC50 [nM]": 74}
{"Compound": "c1ccc(-c2ccc(CNc3cc(NC4CCNCC4)nc4c(C5CC5)cnn34)cc2)nc1 [PPA-048]", "Target entity": "Human CDK12 wt/CycK (Homo sapiens (Human))", "IC50 [nM]": 82}
{"Compound": "c1ccc(-c2ccc(CNc3cc(OC4CNC4)nc4c(C5CC5)cnn34)cc2)nc1 [PPA-049]", "Target entity": "Human CDK12 wt/CycK (Homo sapiens (Human))", "IC50 [nM]": 32}
{"Compound": "c1ccc(-c2ccc(CNc3cc(-c4ccn[nH]4)nc4c(C5CC5)cnn34)cc2)nc1 [PPA-079]", "Target entity": "Human CDK12 wt/CycK (Homo sapiens (Human))", "IC50 [nM]": 1190}
{"Compound": "CCc1cnn2c(NCc3ccc(-c4ccccc4)cc3F)cc(NC[C@H]3CCNC[C@@H]3O)nc12 [PPA-069]", "Target entity": "Human CDK12 wt/CycK (Homo sapiens (Human))", "IC50 [nM]": 122}

Item COc1cccnc1-c1ccc(CNc2cc(NC[C@H]3CCNC[C@@H]3O)nc3c(C(C)C)cnn23)cc1 [PPA-013] has what recorded IC50?
89

Recorded IC50 of CCc1cnn2c(NCc3ccc(-c4ccccn4)cc3)cc(NC[C@H]3CCNC[C@@H]3O)nc12 [PPA-005] , please.
34

###

Target: Human CDK7/CycH/MAT1 (Homo sapiens (Human), UniProt P50613)
Sequence (P50613 whole entry): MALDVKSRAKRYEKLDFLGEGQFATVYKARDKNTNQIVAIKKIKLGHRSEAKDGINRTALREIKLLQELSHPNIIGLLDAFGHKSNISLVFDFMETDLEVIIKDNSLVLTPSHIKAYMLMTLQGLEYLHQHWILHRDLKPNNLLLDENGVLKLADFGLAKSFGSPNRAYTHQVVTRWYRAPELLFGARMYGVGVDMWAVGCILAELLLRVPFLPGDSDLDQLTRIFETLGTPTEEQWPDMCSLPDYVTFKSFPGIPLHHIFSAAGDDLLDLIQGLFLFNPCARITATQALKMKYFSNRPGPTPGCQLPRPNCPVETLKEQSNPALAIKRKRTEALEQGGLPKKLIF
Sequence (P51946 whole entry partner): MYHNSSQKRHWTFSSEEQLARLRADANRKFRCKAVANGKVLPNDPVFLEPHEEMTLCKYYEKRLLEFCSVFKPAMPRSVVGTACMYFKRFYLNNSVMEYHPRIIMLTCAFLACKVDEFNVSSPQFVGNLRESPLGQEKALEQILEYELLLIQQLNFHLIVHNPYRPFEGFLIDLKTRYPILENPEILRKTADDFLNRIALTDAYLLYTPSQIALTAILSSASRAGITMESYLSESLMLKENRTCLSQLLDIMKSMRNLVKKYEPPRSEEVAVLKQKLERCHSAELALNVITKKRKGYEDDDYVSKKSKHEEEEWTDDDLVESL
Sequence (P51948 whole entry partner): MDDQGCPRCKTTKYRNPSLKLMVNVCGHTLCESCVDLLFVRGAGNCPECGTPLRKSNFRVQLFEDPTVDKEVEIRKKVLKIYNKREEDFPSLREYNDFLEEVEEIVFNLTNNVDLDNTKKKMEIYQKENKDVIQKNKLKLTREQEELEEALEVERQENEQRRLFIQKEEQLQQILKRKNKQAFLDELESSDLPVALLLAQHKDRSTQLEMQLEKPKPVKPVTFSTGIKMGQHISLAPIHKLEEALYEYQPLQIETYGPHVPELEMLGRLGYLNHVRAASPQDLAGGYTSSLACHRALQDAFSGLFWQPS
Experiment: Radiometric protein kinase assay (33PanQinase Activity Assay), CDK7
Assay type: biochemical
Conditions: ATP 3 μM
API: label(entry) gives satisfied if the entry's IC50 is strictly smaller than 2000 nM; on equality or larger values it gives not satisfied.

Study these solved cases before continuing.
{"Molecule": "CC(C)c1cnn2c(NCc3ccc(-c4ccncn4)cc3)cc(NC[C@H]3CCNC[C@@H]3O)nc12 [PPA-008]", "Classification": "satisfied"}
{"Molecule": "FC1(CNc2cc(NCc3ccc(-c4ccccn4)cc3)n3ncc(C4CC4)c3n2)CCNCC1 [PPA-062]", "Classification": "not satisfied"}

Determine if Cc1cccnc1-c1ccc(CNc2cc(NC[C@H]3CCNC[C@@H]3O)nc3c(C(C)C)cnn23)cc1 [PPA-012] shows IC50 strictly lower than 2000 nM.
satisfied

Determine whether this molecule shows IC50 lower than 2000 nM (ties excluded): CC(C)c1cnn2c(NCc3ccc(-c4ccccn4)cc3)cc(NC[C@H]3CCNC[C@@H]3O)nc12 [PPA-001]
satisfied

Dear colleague, could you confirm whether IC50 of c1cnn(-c2ccc(CNc3cc(N[C@H]4CCNC4)nc4c(C5CC5)cnn34)cc2)c1 [PPA-091] falls below 2000 nM? Thanks.
not satisfied

###

System: A673 cells
Test: Cytotoxicity in A673 cells (Cell Titer Glo viability)
Assay type: cell-based
Settings: Homo sapiens, A673; read-out: Cellular Potency IC50 (nM) (in A673 cells)
Experimental endpoint: IC50 (nM)
API: value field is a number in nM; no unit string.

Previously resolved entries follow.
{"Molecule": "O[C@H]1CNCC[C@@H]1CNc1cc(NCc2ccc(-c3ccccc3)cc2)n2ncc(Cl)c2n1", "IC50 (nM)": 4.5}
{"Molecule": "O[C@H]1CNCC[C@@H]1CNc1cc(NCc2ccc(-c3nccs3)cc2F)n2ncc(C3CC3)c2n1", "IC50 (nM)": 2.7}
{"Molecule": "c1ccc(-c2ccc(CNc3cc(N4CC5(CNC5)C4)nc4c(C5CC5)cnn34)cc2)nc1", "IC50 (nM)": 73.3}
{"Molecule": "CCc1cnn2c(NCc3ccc(-c4ccccn4)cc3F)cc(NC[C@H]3CCNC[C@@H]3O)nc12", "IC50 (nM)": 1.5}
{"Molecule": "c1cnc(-c2ccc(CNc3cc(N[C@H]4CCCNC4)nc4c(C5CC5)cnn34)cc2)nc1", "IC50 (nM)": 1.9}
{"Molecule": "N#Cc1cnn2c(NCc3ccc(-c4ccccc4)cc3)cc(N[C@H]3CCNC3)nc12", "IC50 (nM)": 1.3}

Fill in: IC50 of c1ccc(-c2ccc(CNc3cc(N[C@H]4CCNC4)nc4c(C5CC5)cnn34)cc2)nc1 is ___
0.7

Consider the compound O[C@H]1CNCC[C@@H]1CNc1cc(NCc2ccc(-c3ncccn3)cc2)n2ncc(C3CC3)c2n1 and give its measured IC50.
1.4

I have this compound here, O[C@H]1CNCC[C@@H]1CNc1cc(NCc2ccc(-c3nccs3)cc2)n2ncc(C3CC3)c2n1 , and I need its recorded IC50.
0.9

Looking for the measured IC50 of CCc1cnn2c(NCc3ccc(-c4ccccc4)cc3)cc(NC[C@H]3CCNC[C@@H]3O)nc12 , can you help?
9.6

Which IC50 is reported for this compound? CC1(CNc2cc(NCc3ccc(-c4ccccn4)cc3)n3ncc(C4CC4)c3n2)CCNCC1
5.9

Need IC50, item O[C@H]1CNCC[C@@H]1CNc1cc(NCc2cn(-c3ccccn3)cn2)n2ncc(C3CC3)c2n1
5.9

###

Target: Human CDK12 wt/CycK (Homo sapiens (Human))
Test: Radiometric protein kinase assay (33PanQinase Activity Assay), CDK12
Format: biochemical
Conditions: ATP 0.3 μM; read-out: CDK12 IC50
Experimental endpoint: IC50 (nM)
The reply should contain only the number, in nM.

Example compounds with recorded IC50:
{"Molecule": "Cc1cc(CNc2cc(NC[C@H]3CCNC[C@@H]3O)nc3c(C(C)C)cnn23)ccc1-c1ccccn1", "Test value": 160}
{"Molecule": "O[C@H]1CNCC[C@@H]1CNc1cc(NCc2ccc(-c3ccccn3)cn2)n2ncc(C3CC3)c2n1", "Test value": 69}

Quick one: IC50 of c1ccc(-c2ccc(CNc3cc(N4CC5CC(C4)N5)nc4c(C5CC5)cnn34)cc2)nc1 ?
152

Any idea what its IC50 is? The compound is O[C@H]1CNCC[C@@H]1CNc1cc(NCc2ccc(-n3cccc3)cc2)n2ncc(C3CC3)c2n1
115

Hello, the source for this data is patent US20240383900A1, in case you need it.
